experiment: an = ratio of the nth substance listed; settings: 293.15 K; 101 kPa; Liquid; Vibrating tube method; a2 = 3
recorded_endpoint: mass density (kg/m3)
Numbers only, in kg/m3.

Some compounds with known mass density results, for comparison:
> print(dat)
                                   compound  recorded.endpoint  endpoint.result
1  CCC[N+](CCC)(CCC)Cc1ccccc1.[Cl-] [benzyltripropylammonium chloride] + Oc1ccccc1       mass density          1060.26
2  CCC[N+](CCC)(CCC)Cc1ccccc1.[Cl-] [benzyltripropylammonium chloride] + CC(O)C(=O)O       mass density          1120.61
3  CCC[N+](CCC)(CCC)Cc1ccccc1.[Cl-] [benzyltripropylammonium chloride] + OCC(O)CO       mass density          1133.02

Consider the additional compound presented here.
INPUT: # mass density lookup, item CCC[N+](CCC)(CCC)Cc1ccccc1.[Cl-] [benzyltripropylammonium chloride] + OCCO
OUTPUT: 1063.63
